Listing of recorded Ki by entry.
# EXPERIMENTAL SYSTEM: human PDE2A1 (Homo sapiens (Human))
# MEASUREMENT NOTES: IMAP FP PDE selectivity panel, human PDE2A1
# Type: biochemical
# PROTOCOL CONDITIONS: Human PDE2, Lab B; read-out: Human PDE2 Ki (nM) - Lab B
Please state the value followed by its unit.

Worked examples follow.
Cc1nc(C(=O)NC2(c3ccc(S(F)(F)(F)(F)F)cc3)CC2)cc(=O)[nH]1 ... 42 nM
O=C(N[C@@H](c1ccc(C(F)(F)F)c(F)c1)C1CC1)c1cc(=O)[nH]c(-c2ncccn2)n1 ... 33 nM
O=C(N[C@@H](c1ccc(OC(F)F)cc1)C1CC1)c1cc(=O)[nH]c(-c2ccccc2)n1 ... 12 nM

Okay, next one:
Challenge: I'd like to know its Ki. The compound in question is CC(C)(C)[C@@H](NC(=O)c1cc(=O)[nH]c(C2CC2)n1)c1ccc(OC(F)F)cc1
Response given: 3.2 nM

* * *

# EXPERIMENTAL SYSTEM: human PDE2A1 (Homo sapiens (Human), UniProt O00408)
# Sequence (O00408 other isoform, or with tags, fused parts or gaps): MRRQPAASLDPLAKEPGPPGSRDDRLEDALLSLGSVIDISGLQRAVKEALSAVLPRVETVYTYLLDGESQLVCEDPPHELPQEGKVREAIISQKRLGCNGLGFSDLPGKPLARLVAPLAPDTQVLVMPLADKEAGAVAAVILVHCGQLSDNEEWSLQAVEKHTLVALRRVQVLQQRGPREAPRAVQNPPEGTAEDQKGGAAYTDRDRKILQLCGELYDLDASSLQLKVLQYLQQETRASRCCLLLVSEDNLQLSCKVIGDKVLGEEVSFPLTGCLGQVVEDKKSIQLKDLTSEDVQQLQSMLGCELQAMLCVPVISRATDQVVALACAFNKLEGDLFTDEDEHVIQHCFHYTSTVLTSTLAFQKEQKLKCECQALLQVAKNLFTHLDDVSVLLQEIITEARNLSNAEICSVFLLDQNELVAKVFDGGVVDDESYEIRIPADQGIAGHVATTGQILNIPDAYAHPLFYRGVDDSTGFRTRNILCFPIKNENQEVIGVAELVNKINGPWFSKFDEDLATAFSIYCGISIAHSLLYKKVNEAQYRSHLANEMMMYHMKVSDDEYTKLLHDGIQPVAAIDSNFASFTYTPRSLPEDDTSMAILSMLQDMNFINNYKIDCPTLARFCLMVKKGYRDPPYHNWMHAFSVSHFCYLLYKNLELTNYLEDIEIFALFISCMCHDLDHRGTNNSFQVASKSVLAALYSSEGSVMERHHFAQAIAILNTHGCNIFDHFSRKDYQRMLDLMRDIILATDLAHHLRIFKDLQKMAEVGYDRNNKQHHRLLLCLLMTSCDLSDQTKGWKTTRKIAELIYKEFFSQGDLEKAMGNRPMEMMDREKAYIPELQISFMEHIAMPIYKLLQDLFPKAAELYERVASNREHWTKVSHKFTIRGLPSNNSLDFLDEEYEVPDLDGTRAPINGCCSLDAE
# MEASUREMENT NOTES: IMAP FP PDE selectivity panel, human PDE2A1
# Format: biochemical
# PROTOCOL CONDITIONS: Human PDE2, Lab B; read-out: Human PDE2 Ki (nM) - Lab B
MEASUREMENT TYPE: Ki (nM)
Form entry: value (nM) — number only.

Worked set:
Cc1nc(C(=O)NC(CO)c2ccc(C(F)(F)F)cc2)cc(=O)[nH]1 (single isomer, unassigned) ... 52
CC(C)(NC(=O)c1cc(=O)[nH]c(-c2ccccc2)n1)c1ccccc1Br ... 183
Cc1nc(C(=O)NC2(c3ccc(C(F)(F)F)cc3Cl)CC2)cc(=O)[nH]1 ... 16
O=C(NC1(c2ccc(S(F)(F)(F)(F)F)cc2)CC1)c1cc(=O)[nH]c(-c2ncccn2)n1 ... 21
CC1(c2ccc(C(NC(=O)c3cc(=O)[nH]c(C4CC4)n3)C(C)(C)C)cc2F)CC1 (single isomer, unassigned) [Example 712] ... 237

Challenge: I have this compound here, CCc1ccc(C(C)NC(=O)c2cc(=O)[nH]c(-c3ncccn3)n2)cc1 (centres unmarked) , and I need its recorded Ki.
Response given: 35

Challenge: Field entry: CC1(c2ccc(C(NC(=O)c3cc(=O)[nH]c(-c4ccccc4)n3)C(C)(C)C)cc2F)CC1 (single isomer, unassigned) [Example 715]
Response given: 3.8

Challenge: Also Cc1nc(C(=O)N[C@@H](c2ccc(C3CC3)cc2)C2(C)CC2)cc(=O)[nH]1 , if possible.
Response given: 3.8

Challenge: Next up: COc1ccc(Cc2nc(C(=O)N[C@@H](c3ccc(OC(F)(F)F)cc3)C(C)C)cc(=O)[nH]2)cc1F
Response given: 1.7

* * *

Parameter: Ki. Scope: all listed entries.
# EXPERIMENTAL SYSTEM: human PDE2A1 (Homo sapiens (Human), UniProt O00408)
# MEASUREMENT NOTES: IMAP FP PDE selectivity panel, human PDE2A1
# Format: biochemical
# PROTOCOL CONDITIONS: Human PDE2, Lab B; read-out: Human PDE2 Ki (nM) - Lab B
Note: unit nM is implicit; provide only the numeric part.

Cc1nc(C(=O)NC2(c3ccc(C(F)(F)F)cc3)CC2)cc(=O)[nH]1 [Example 1] ... 36
CC(C)(NC(=O)c1cc(=O)[nH]c(-c2ncccn2)n1)c1ccc(C(F)(F)F)cc1F [Example 573] ... 88

Challenge: Sample COc1ccc2cc(C(C)NC(=O)c3cc(=O)[nH]c(-c4ccccc4)n3)ccc2c1 (stereo not drawn) [Example 378] — what was its Ki?
Response given: 41

Challenge: Moving on to the next compound: CC(C)(C)[C@@H](NC(=O)c1cc(=O)[nH]c(-c2ccccc2)n1)c1ccc(C2CC2)cc1 [Example 536]
Response given: 0.51

Challenge: Quick one: CCc1nc(C(=O)N[C@](C)(CO)c2ccc(C(F)(F)F)cc2Cl)cc(=O)[nH]1 [Example 639]
Response given: 2

Challenge: Proceed to COc1ccc(Cc2nc(C(=O)N[C@@H](c3ccc(C(F)(F)F)cc3)C3CC3)cc(=O)[nH]2)cc1F [Example 525]
Response given: 1.9

Challenge: Now this one: CC[C@@H](NC(=O)c1cc(=O)[nH]c(-c2ccccc2)n1)c1ccc(SC(F)(F)F)c(F)c1 [Example 385]
Response given: 4.4

Challenge: Could you do the same for CC(C)[C@@H](NC(=O)c1cc(=O)[nH]c(C2CC2)n1)c1ccc(C(F)(F)F)c(F)c1 [Example 251] , please?
Response given: 3.6

Challenge: What do we get for CC1(c2ccc(C(NC(=O)c3cc(=O)[nH]c(C4CC4)n3)C(C)(C)C)cc2F)CC1 (single isomer, unassigned) [Example 713] ?
Response given: 1.5

* * *

# EXPERIMENTAL SYSTEM: Rhesus PDE2A3 (Macaca mulatta)
# Sequence (B3VTJ2 1-941): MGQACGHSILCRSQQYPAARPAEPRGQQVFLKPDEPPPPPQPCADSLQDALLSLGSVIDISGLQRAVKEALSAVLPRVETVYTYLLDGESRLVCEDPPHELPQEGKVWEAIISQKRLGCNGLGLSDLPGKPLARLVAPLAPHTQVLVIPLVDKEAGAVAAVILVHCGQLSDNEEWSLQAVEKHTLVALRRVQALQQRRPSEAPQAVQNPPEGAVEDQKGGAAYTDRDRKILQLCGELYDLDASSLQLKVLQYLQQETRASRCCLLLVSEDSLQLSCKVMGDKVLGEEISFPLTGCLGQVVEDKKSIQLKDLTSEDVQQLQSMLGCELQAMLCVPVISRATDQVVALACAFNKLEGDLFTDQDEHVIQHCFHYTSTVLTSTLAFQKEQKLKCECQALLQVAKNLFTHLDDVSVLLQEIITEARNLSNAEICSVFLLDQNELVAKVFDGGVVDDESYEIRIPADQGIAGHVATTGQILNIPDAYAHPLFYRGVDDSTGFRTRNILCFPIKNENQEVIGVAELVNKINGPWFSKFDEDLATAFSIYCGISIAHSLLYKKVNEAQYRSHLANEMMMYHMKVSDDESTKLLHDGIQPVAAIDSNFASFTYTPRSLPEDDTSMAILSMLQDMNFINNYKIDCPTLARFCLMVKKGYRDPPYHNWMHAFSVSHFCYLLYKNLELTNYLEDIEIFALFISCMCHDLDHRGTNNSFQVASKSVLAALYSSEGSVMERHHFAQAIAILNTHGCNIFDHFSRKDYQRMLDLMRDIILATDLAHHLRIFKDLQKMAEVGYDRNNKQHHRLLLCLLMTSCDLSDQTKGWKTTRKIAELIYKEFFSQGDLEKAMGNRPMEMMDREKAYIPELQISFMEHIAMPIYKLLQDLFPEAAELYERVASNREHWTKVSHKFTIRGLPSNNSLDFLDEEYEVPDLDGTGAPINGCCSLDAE
# MEASUREMENT NOTES: PDE2 fluorescence polarization (IMAP FP) inhibition assay, rhesus enzyme
# Type: biochemical, rhesus macaque
# PROTOCOL CONDITIONS: Rhesus PDE2, Lab A; read-out: Rhesus PDE2 Ki (nM) - Lab A
MEASUREMENT TYPE: Ki

Consider the following illustrative entries.
O=C(N[C@@H](c1ccc(C(F)(F)F)c(F)c1)C1CC1)c1cc(=O)[nH]c(-c2ccccc2)n1 [Example 174] ... 5.7 nM
O=C(NCc1ccc(C2CC2)cc1)c1cc(=O)[nH]c(C2CC2)n1 [Example 221] ... 681 nM
CC(NC(=O)c1cc(=O)[nH]c(-c2ccccc2)n1)c1cccc(Cl)c1 (centres unmarked) [Example 368] ... ~880 nM
Cc1nc(C(=O)N[C@@H](c2ccc(C(F)(F)F)cc2)[C@@H](C)O)cc(=O)[nH]1 [Example 65] ... 38 nM
O=C(NC1(c2ccc(C(F)(F)F)c(F)c2)CC1)c1cc(=O)[nH]c(-c2ncccn2)n1 [Example 76] ... 17 nM

Challenge: Lookup: Ki / Rhesus PDE2A3 (Macaca mulatta) / Cc1nc(C(=O)NC(C)c2ccc(C(F)(F)F)cc2Cl)cc(=O)[nH]1 (centres unmarked) [Example 18]
Response given: 472 nM

Challenge: Now consider Cc1nc(C(=O)N[C@@H](c2ccc(C3CC3)cc2)C2CC2)cc(=O)[nH]1 [Example 50] .
Response given: 8 nM

Challenge: Could you do the same for COC(=O)c1ccc(C(C)(C)NC(=O)c2cc(=O)[nH]c(-c3ccccc3)n2)cc1 [Example 160] , please?
Response given: 826 nM

* * *

# EXPERIMENTAL SYSTEM: UniProtKB B3VTJ2
# MEASUREMENT NOTES: PDE2 fluorescence polarization (IMAP FP) inhibition assay, rhesus enzyme
# Format: biochemical, rhesus macaque
# PROTOCOL CONDITIONS: Rhesus PDE2, Lab A; read-out: Rhesus PDE2 Ki (nM) - Lab A
Label Met when Ki < 300 nM; otherwise Not met.

COCc1nc(C(=O)NC(C)(C)c2ccc(C(F)(F)F)cc2)cc(=O)[nH]1 ... Met
CC(NC(=O)c1cc(=O)[nH]c(-c2ncccn2)n1)c1ccc(C(F)(F)F)cc1Cl (centres unmarked) ... Not met
O=C(NC1(c2ccc(C(F)(F)F)cc2)CCC1)c1cc(=O)[nH]c(C2CC2)n1 ... Met
Cc1nc(C(=O)N[C@@H](c2ccc(OC(F)(F)F)c(F)c2)C2CC2)cc(=O)[nH]1 ... Met

Challenge: Hi there! Is Ki for CC[C@@H](NC(=O)c1cc(=O)[nH]c(COC)n1)c1ccc(OC(F)(F)F)c(F)c1 below 300 nM, do you know?
Response given: Met

Challenge: Likewise for Cc1nc(C(=O)NC(C(=O)O)c2ccc(C(F)(F)F)cc2)cc(=O)[nH]1 (single isomer, unassigned) [Example 327] ?
Response given: Not met

Challenge: Repeat for the following molecule: CC[C@@H](NC(=O)c1cc(=O)[nH]c(C)n1)c1ccc(SC(F)(F)F)cc1
Response given: Met

Challenge: Input COc1cc(C(F)(F)F)ccc1[C@@H](C)NC(=O)c1cc(=O)[nH]c(-c2ccccc2)n1
Response given: Not met

Challenge: Repeat for the following molecule: COc1ccc([C@@H](C)NC(=O)c2cc(=O)[nH]c(C3CC3)n2)cc1
Response given: Met

Challenge: Please answer likewise for COCc1nc(C(=O)N[C@@H](c2ccc(OC(F)(F)F)c(F)c2)C2CC2)cc(=O)[nH]1
Response given: Met

Challenge: Follow-up entry: CCc1ccc(C(C)NC(=O)c2cc(=O)[nH]c(-c3ncccn3)n2)cc1 (centres unmarked)
Response given: Met

Challenge: Try this molecule next: Cc1nc(C(=O)N[C@H](C)c2ccc([S+]([O-])C(F)(F)F)cc2)cc(=O)[nH]1 (some centres unmarked)
Response given: Not met

Challenge: Ok, now C[C@@H](NC(=O)c1cc(=O)[nH]c(-c2ccccc2)n1)c1cc(F)c(C(F)(F)F)c(F)c1
Response given: Met

Challenge: Do the same for CC(NC(=O)c1cc(=O)[nH]c(C2CC2)n1)c1ncc(C(F)(F)F)cn1 (centres unmarked) please
Response given: Not met

Challenge: Next record, please: CC(C)(NC(=O)c1cc(=O)[nH]c(-c2ccccc2)n1)c1ccc(Br)cc1
Response given: Met

Challenge: Follow-up entry: CSCc1nc(C(=O)N[C@H](C)c2ccc(C(F)(F)F)cc2)cc(=O)[nH]1
Response given: Met

Challenge: // repeat for O=C(N[C@@H](c1ccc(OC(F)(F)F)cc1)C1CC1)c1cc(=O)[nH]c(C2CC2)n1 and report
Response given: Met

Challenge: Now consider COc1cc(-c2ccc([C@@H](C)NC(=O)c3cc(=O)[nH]c(C)n3)cc2)ccn1 .
Response given: Not met

Challenge: Same question for Cc1nc(C(=O)NC2(c3ccc(C(F)(F)F)cc3)CC2)cc(=O)[nH]1 please.
Response given: Met

Challenge: Please give the result for CC(C)(C)c1ccc(CCNC(=O)c2cc(=O)[nH]c(-c3ccccc3)n2)cc1 too.
Response given: Not met

Challenge: Here is the next molecule: COC(=O)c1ccc([C@@H](C)NC(=O)c2cc(=O)[nH]c(-c3ccccc3)n2)cc1
Response given: Met
